Test system: DU145 cells
Assay: MTT cytotoxicity assay, DU145 cells
Assay type: cell-based
Conditions: Homo sapiens, DU-145, 24 h treatment, means ± SD, n = 3
MEASUREMENT_KIND: IC50 (µM)

1) CN(Cc1cnc2nc(N)nc(N)c2n1)c1ccc(C(=O)N[C@@H](CCC(=O)O)C(=O)O)cc1 [MTX, Methotrexate]
8.03
